Tested on: MOLT-4 leukemia
procedure summary: NCI tumour cell line growth inhibition, 48 h
observable: TGI

| compound | observable | recorded value |
| --- | --- | --- |
| CC1(C)N/C(=C\[N+](=O)[O-])C(C)(C)N1O | TGI | > 10 µM |
| Cc1ccc(S(=O)(=O)N=Nc2c(O)[nH]c3cc(O)c(C(=O)O)cc23)cc1 | TGI | > 100 µM |
| CCCCCCCCCCCC(=O)OCCOCCOCCOCCOCCOC(=O)CCCCCCCCCCC | TGI | > 100 µM |
| Cc1cccc(Cl)c1NCC(O)CN1CCN(C)CC1 (centres undefined) | TGI | > 100 µM |
| CNC1(c2cc3ccccc3s2)CCCCC1 | TGI | > 100 µM |
| C#CC1(O)C(COP(=O)(O)OCC(COP(=O)(O)OCC2OC(n3cc(F)c(=O)[nH]c3=O)CC2O)OCCCCCCCCCCCCCCCCCC)OC(n2ccc(N)nc2=O)C1O (centres undefined) | TGI | > 100 µM |
| CN(C)Cc1cc(C(F)(F)F)ccc1C(O)(c1ccccc1)c1ccccc1 | TGI | 38.8 µM |
| COc1cc2c(cc1O)c(O)cc1c3cc(OC)c(OC)cc3c[n+](C)c21 | TGI | 40.3 µM |

Exam item: Name the recorded TGI for CCCCCCCCCC[C@@H](OC(C)=O)[C@@H]1CC[C@@H]([C@@H]2CC[C@@H]([C@@H](O)CC#C/C=C/CCCCCCC[C@@]3(Sc4ccccc4)C[C@H](C)OC3=O)O2)O1 .
Marked response: > 10 µM
